Could you please report measured DC50 for the items listed next?
Biological target: STAT1 (Homo sapiens)
Construct: In vitro cultured cells or xenograft tumors were lysed; endogenous in cells; host or cells: MOLM-16
Sequence (P42224 whole entry): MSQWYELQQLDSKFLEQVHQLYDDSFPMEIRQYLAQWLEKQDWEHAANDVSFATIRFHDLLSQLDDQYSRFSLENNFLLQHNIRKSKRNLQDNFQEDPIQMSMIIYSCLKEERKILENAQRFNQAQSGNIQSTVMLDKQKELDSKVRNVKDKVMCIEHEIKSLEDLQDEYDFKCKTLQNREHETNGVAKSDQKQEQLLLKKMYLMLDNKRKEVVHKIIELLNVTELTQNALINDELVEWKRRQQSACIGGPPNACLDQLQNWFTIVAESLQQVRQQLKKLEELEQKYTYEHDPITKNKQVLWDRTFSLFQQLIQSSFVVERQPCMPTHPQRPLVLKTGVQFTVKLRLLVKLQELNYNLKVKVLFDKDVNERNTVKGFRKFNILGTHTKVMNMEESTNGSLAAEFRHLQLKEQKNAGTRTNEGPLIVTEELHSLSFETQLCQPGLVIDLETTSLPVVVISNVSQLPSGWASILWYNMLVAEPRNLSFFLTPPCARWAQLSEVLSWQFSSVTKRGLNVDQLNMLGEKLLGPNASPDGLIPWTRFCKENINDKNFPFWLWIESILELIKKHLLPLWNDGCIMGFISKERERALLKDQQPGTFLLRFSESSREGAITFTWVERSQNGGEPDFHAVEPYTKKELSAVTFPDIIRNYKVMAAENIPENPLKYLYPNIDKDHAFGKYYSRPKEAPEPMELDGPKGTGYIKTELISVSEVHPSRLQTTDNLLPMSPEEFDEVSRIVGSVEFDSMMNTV
Assay: Estimated DC50 for STAT1 degradation in MOLM-16 cells (immunoblotting)
Type: cell-based
Conditions: MOLM-16, 4 h; read-out: Estimated DC50 STAT1
Description: FIG. 62 is a series of four images showing the fluorescent immunoblotting analysis of STAT1 and STAT3 protein in Molm-16 cells after treatment for 4 h with Cpd. Nos. 331, 296, 361, 362, 363, 364, 365, 366, and 367 at the concentrations indicated. In vitro cultured cells or xenograft tumors were lysed 1× Cell Lysis Buffer (Cell Signaling Technology, #9803), resolved by SDS-PAGE NuPAGE gel (Thermo Fisher Scientific), and transferred to a PVDF membrane (Bio Rad). […]

Item CC(C)N1CC[C@H]2CC[C@@H](C(=O)N[C@@H](CCC(N)=O)C(=O)N[C@@H](Cc3ccc(C(C)(C)C)cc3)C(=O)N3CCC(CCC#Cc4cccc5c4CN(C4CCC(=O)NC4=O)C5=O)CC3)N2C(=O)[C@@H](NC(=O)c2cc3cc(C(F)(F)P(=O)(O)O)ccc3s2)C1 (stereo partly drawn) [Cpd. No. 364] has what recorded DC50? < 250 nM

And for CCN1CC[C@H]2CC[C@@H](C(=O)N[C@@H](CCC(N)=O)C(=O)N[C@@H](Cc3ccc(NS(=O)(=O)c4ccc(C)cc4)cc3)C(=O)N3CCC(CCC#Cc4cccc5c4CN(C4CCC(=O)NC4=O)C5=O)CC3)N2C(=O)[C@@H](NC(=O)c2cc3cc(C(F)(F)P(=O)(O)O)ccc3s2)C1 (stereo partly drawn) [Cpd. No. 354] ? 250 nM

And for CCN1CC[C@H]2CC[C@@H](C(=O)N[C@@H](CCC(N)=O)C(=O)N[C@@H](Cc3ccc(C(=O)NC4CCOCC4)cc3)C(=O)N3CCC(CCC#Cc4cccc5c4CN(C4CCC(=O)NC4=O)C5=O)CC3)N2C(=O)[C@@H](NC(=O)c2cc3cc(C(F)(F)P(=O)(O)O)ccc3s2)C1 (stereo partly drawn) [Cpd. No. 359] ? > 1000 nM

And for CC(C)(C)c1ccc(C[C@H](NC(=O)[C@H](CCC(N)=O)NC(=O)[C@@H]2CC[C@@H]3CCN(CC(F)F)C[C@H](NC(=O)c4cc5cc(C(F)(F)P(=O)(O)O)ccc5s4)C(=O)N32)C(=O)N2CCC(CCC#Cc3cccc4c3CN(C3CCC(=O)NC3=O)C4=O)CC2)cc1 (stereo partly drawn) [Cpd. No. 362] ? < 250 nM

And for CCN1CC[C@H]2CC[C@@H](C(=O)N[C@@H](CCC(N)=O)C(=O)N[C@@H](Cc3ccc(S(=O)(=O)C4CC4)cc3)C(=O)N3CCC(CCC#Cc4cccc5c4CN(C4CCC(=O)NC4=O)C5=O)CC3)N2C(=O)[C@@H](NC(=O)c2cc3cc(C(F)(F)P(=O)(O)O)ccc3s2)C1 (stereo partly drawn) [Cpd. No. 353] ? 500 nM

And for CCN1CC[C@H]2CC[C@@H](C(=O)N[C@@H](CCC(N)=O)C(=O)N[C@@H](Cc3ccc(NS(=O)(=O)c4ccc(C5CCCCC5)cc4)cc3)C(=O)N3CCC(CCC#Cc4cccc5c4CN(C4CCC(=O)NC4=O)C5=O)CC3)N2C(=O)[C@@H](NC(=O)c2cc3cc(C(F)(F)P(=O)(O)O)ccc3s2)C1 (stereo partly drawn) [Cpd. No. 357] ? > 1000 nM

And for CCN1CC[C@H]2CC[C@@H](C(=O)N[C@@H](CCNC(N)=O)C(=O)N[C@@H](Cc3ccc(C(C)(C)C)cc3)C(=O)N3CCC(CCC#Cc4cccc5c4CN(C4CCC(=O)NC4=O)C5=O)CC3)N2C(=O)[C@@H](NC(=O)c2cc3cc(C(F)(F)P(=O)(O)O)ccc3s2)C1 (stereo partly drawn) [compound 355] ? > 1000 nM

And for CCN1CC[C@H]2CC[C@@H](C(=O)N[C@@H](CNC(N)=O)C(=O)N[C@@H](Cc3ccc(C(C)(C)C)cc3)C(=O)N3CCC(CCC#Cc4cccc5c4CN(C4CCC(=O)NC4=O)C5=O)CC3)N2C(=O)[C@@H](NC(=O)c2cc3cc(C(F)(F)P(=O)(O)O)ccc3s2)C1 (stereo partly drawn) [compound 356] ? > 1000 nM

And for CCN1CC[C@H]2CC[C@@H](C(=O)N[C@@H](CCC(N)=O)C(=O)N[C@@H](Cc3ccc(C(=O)NC4CCCCC4)cc3)C(=O)N3CCC(CCC#Cc4cccc5c4CN(C4CCC(=O)NC4=O)C5=O)CC3)N2C(=O)[C@@H](NC(=O)c2cc3cc(C(F)(F)P(=O)(O)O)ccc3s2)C1 (stereo partly drawn) [Cpd. No. 367] ? < 1000 nM

And for CCN1CC[C@H]2CC[C@@H](C(=O)N[C@@H](CCC(N)=O)C(=O)N[C@@H](Cc3ccc(C(=O)NCC4CCN(C)CC4)cc3)C(=O)N3CCC(CCC#Cc4cccc5c4CN(C4CCC(=O)NC4=O)C5=O)CC3)N2C(=O)[C@@H](NC(=O)c2cc3cc(C(F)(F)P(=O)(O)O)ccc3s2)C1 (stereo partly drawn) [Cpd. No. 360] ? > 1000 nM

And for CCN1CC[C@H]2CC[C@@H](C(=O)N[C@@H](CCC(N)=O)C(=O)N[C@@H](Cc3ccc(C(=O)N4CCOCC4)cc3)C(=O)N3CCC(CCC#Cc4cccc5c4CN(C4CCC(=O)NC4=O)C5=O)CC3)N2C(=O)[C@@H](NC(=O)c2cc3cc(C(F)(F)P(=O)(O)O)ccc3s2)C1 (stereo partly drawn) [Cpd. No. 366] ? < 250 nM

And for CC(=O)N1CC[C@H]2CC[C@@H](C(=O)N[C@@H](CCC(N)=O)C(=O)N[C@@H](Cc3ccc(C(C)(C)C)cc3)C(=O)N3CCC(CCC#Cc4cccc5c4CN(C4CCC(=O)NC4=O)C5=O)CC3)N2C(=O)[C@@H](NC(=O)c2cc3cc(C(F)(F)P(=O)(O)O)ccc3s2)C1 (stereo partly drawn) [Cpd. No. 363] ? < 250 nM
